# Test system: HL-60(TB) leukemia
# assayNotes: NCI-60 one-dose screen, 48 h
# experimentalContext: 10 µM unless noted
This is part of a sample that, as a whole, favours compounds with a hit. Of some 83,000 tested, about 20% had one in any assay. Calls of active or inactive are those of the source. How the source made its calls: active means growth percent below 10; inactive means the rest.
Response enum: active, inactive

// known answers, use as guide
COc1cccc2c1[C@H](OC)[C@]13O[C@@]1(C2=O)[C@H](O)[C@H](C)[C@@](O)(C(=O)[C@@H]1O[C@H]1C)[C@@H]3O	active
COc1cc(/C=N/Nc2ccnc3cc(Cl)ccc23)cc(OC)c1O	active
CCCC(=O)NC(c1cccnc1)c1cc(C(C)(C)C)c2cccnc2c1O (centres undefined)	active
C=CCn1c(SCC(=O)Nc2ccc(C(=O)/C=C/c3ccc(C)cc3)cc2)nnc1-c1c[nH]c2ccccc12	inactive

Asked: For this compound, state the assay outcome: Nc1nc(-c2cccc([N+](=O)[O-])c2)c(N=Nc2ccc(Br)cc2)s1
Given back: inactive

Asked: Repeat for the following compound: Oc1ccc(-c2nnc(SCc3ccc(O)c4ncccc34)n2-c2ccccc2)cc1
Given back: active

Asked: Do the same for O=C(O)c1ccc(-n2cc(CNc3cc(F)c(F)c(F)c3)c(-c3ccc(F)cc3)n2)cc1 please
Given back: inactive

Asked: Now give it for CNC(=O)Nc1ccc(Nc2cc(-c3ccc(-n4cccn4)cc3)[nH]n2)c(C)c1 too.
Given back: inactive

Asked: Entry to check: Cc1cc(=O)oc2cc(OCCCOc3ccc(/C=C/C(=O)Nc4ccc(Br)cc4)cc3)ccc12
Given back: inactive

###

# System: BT-549 breast
# assayNotes: NCI-60 one-dose screen, 48 h (100 = growth as untreated, 0 = no growth, -100 = all killed)
# experimentalContext: 10 µM
Compounds without any hit were thinned out: in the full panel of roughly 83,000, 20% have a hit.
readoutName: growth (%)
Give the value, in units of %, as a plain number.

The cases that follow already have their growth on record.
N#Cc1nc(-c2ccccc2)oc1N1CCC(S(=O)(=O)F)CC1	108
CC1=C2C(=C[C@@](C)(COC(=O)c3ccc(S(=O)(=O)F)cc3)[C@@H]2OC(=O)c2ccc(S(=O)(=O)F)cc2)C(=O)[C@](C)(O)C12CC2	-90.2

Asked: Recorded growth for CC(C)=CCc1c2c(c(O)c3c1O[C@]14C(=C[C@@H]5C[C@H]1C(C)(C)O[C@@]4(C/C=C(/C)C(=O)O)C5=O)C3=O)C=CC(C)(C)O2 , please?
Given back: -11.2

Asked: What about this molecule? CC1=C(CCC=NNC(N)=O)C2=C(C)C3(CC3)[C@@](C)(O)C(=O)C2=C1
Given back: -93.5

Asked: Query COc1cc(OC)c(S(=O)(=O)N(CCCl)CCCl)cc1C(=O)/C=C/c1ccc(Cl)cc1 next
Given back: 53

Asked: Same question for C=C1[C@@H](C)C2[C@H](Cc3ccccc3)NC(=O)[C@]23[C@H](OC(C)=O)/C=C/[C@@](C)(O)C(=O)[C@@H](C)C/C=C/[C@H]3[C@@H]1O (stereo partly drawn) please.
Given back: 12.4

Asked: How about CC(C)(O)/C=C/C(=O)[C@](C)(O)[C@H]1[C@H](O)C[C@@]2(C)[C@H]3CC=C4[C@@H](C[C@H](O)C(=O)C4(C)C)[C@]3(C)C(=O)C[C@]12C ?
Given back: -24.5

Asked: What do we get for COc1cc2c(cc1OC)[C@@H]1N(CC2)C(=O)c2ccccc2[C@@]1(C)C(=O)O ?
Given back: 108
